# Tested on: HeLa cells
# TEST PROTOCOL: Trypan Blue exclusion assay
# Format: cell-based, human
# MEASUREMENT CONTEXT: HeLa, 40 μM, up to 72 h, % total cells; read-out: non-viable (Trypan Blue positive) populations
TEST READOUT: cytotoxicity

Report measured cytotoxicity; entry is [Ru+2].c1ccc(-c2nc3c4cccnc4c4ncccc4c3[nH]2)cc1.c1ccc2nc3c4cccnc4c4ncccc4c3nc2c1.c1ccc2nc3c4cccnc4c4ncccc4c3nc2c1 [Complex 1, [Ru(dppz)2(PIP)]^2+]
< 20%

---

# System: MCF7 breast cancer cells
# TEST PROTOCOL: MTT proliferation assay, MCF7
# Assay type: cell-based, human
# MEASUREMENT CONTEXT: Homo sapiens, MCF7, 24 h, 24 h proliferation assay
pIC50: −log10 of the molar value.
TEST READOUT: pIC50

Report measured pIC50; entry is O=C1c2c(O)ccc(O)c2C(=O)c2c(NCCNCCO)ccc(NCCNCCO)c21 [MX, mitoxantrone]
> 5.30
